Recorded CREATININE values for a group of molecules are listed next.
- Species on record: Rattus norvegicus
- EXPERIMENT DESCRIPTION: DrugMatrix - Regimen: Daily Repeat
- Type: toxicity, organism-based, Sprague-Dawley
- Design: regimen Daily Repeat, gender Male, age 6-8 weeks
- REPORTED CONDITIONS: in vivo, po, 0 mg/kg, 72 h, tissue Plasma, route oral GAVAGE, dose level Control, time 3 day, vehicle 100 % WATER
Report only the number, with the unit mg/dL understood.

Recorded CREATININE, per entry:
| MOLECULE | METRIC | REPORTED MEASUREMENT |
| --- | --- | --- |
| O=c1[nH]c(=O)n(C2CCCO2)cc1F (stereo unspecified) [TEGAFUR] | CREATININE | 0.17 |
| CCN(CC)CCNC(=O)c1ccc(N)cc1 [PROCAINAMIDE] | CREATININE | 0.62 |
| C#Cc1cccc(Nc2ncnc3cc(OCCOC)c(OCCOC)cc23)c1 [ERLOTINIB] | CREATININE | 0.68 |

Using the record for CCN(C(C)=O)c1cccc(-c2ccnc3c(C#N)cnn23)c1 [ZALEPLON] , state its measured CREATININE.
0.18

Return CREATININE for the following molecule: CCN(CC)CCOC(=O)C1(C2CCCCC2)CCCCC1 [DICYCLOMINE]
0.92

Give recorded CREATININE. CN(C)CCC=C1c2ccccc2CCc2ccccc21 [AMITRIPTYLINE]
0.18

* * *

- Species: Rattus norvegicus
- EXPERIMENT DESCRIPTION: DrugMatrix - Regimen: Daily Repeat
- Assay type: toxicity, organism-based, Sprague-Dawley
- Design: regimen Daily Repeat, gender Male, age 6-8 weeks
- REPORTED CONDITIONS: in vivo, po, 0 mg/kg, 72 h, tissue Plasma, route oral GAVAGE, dose level Control, time 3 day, vehicle 100 % WATER
Threshold rule: CARBON DIOXIDE greater than or equal to 30 mmol/L is 1.0; below that, 0.0.

Before answering, review these 4 worked examples.
| COMPOUND | DISCRETE LABEL |
| --- | --- |
| NC12CC3CC(CC(C3)C1)C2 | 1.0 |
| CCCC(C)C1(CC)C(=O)NC(=O)NC1=O (centres undefined) | 1.0 |
| CNC1=Nc2ccc(Cl)cc2C(c2ccccc2)=[N+]([O-])C1 [CHLORDIAZEPOXIDE] | 0.0 |
| NC(=O)c1cccnc1 [NIACINAMIDE] | 0.0 |

Item CCN(C(C)=O)c1cccc(-c2ccnc3c(C#N)cnn23)c1 with CARBON DIOXIDE of 30 mmol/L or above?
1.0

Does O=c1[nH]c(=O)n(C2CCCO2)cc1F (centres undefined) have a reported CARBON DIOXIDE of at least 30 mmol/L?
1.0

Assess whether reported CARBON DIOXIDE for CN(C)C(=O)Oc1cccc([N+](C)(C)C)c1.[Br-] [NEOSTIGMINE BROMIDE] sits at 30 mmol/L or higher.
1.0

Is the recorded value of CARBON DIOXIDE equal to or greater than 30 mmol/L for this compound? C#Cc1cccc(Nc2ncnc3cc(OCCOC)c(OCCOC)cc23)c1
1.0

// inclusive: CARBON DIOXIDE at least 30 mmol/L? input: CN(C)CCC=C1c2ccccc2CCc2ccccc21
1.0

* * *

- Organism: Rattus norvegicus
- EXPERIMENT DESCRIPTION: DrugMatrix - Regimen: Daily Repeat
- Assay type: toxicity, organism-based, Sprague-Dawley
- Set-up: regimen Daily Repeat, gender Male, age 6-8 weeks
- REPORTED CONDITIONS: in vivo, po, 0 mg/kg, 72 h, tissue Plasma, route oral GAVAGE, dose level Control, time 3 day, […]
METRIC: CREATINE PHOSPHOKINASE (u/L)
Write the answer as a number in u/L, unit excluded.

Using known records, supply CREATINE PHOSPHOKINASE for c1ccoc1
342.33

* * *

Reported SODIUM values follow for various compounds
- Organism: Rattus norvegicus
- EXPERIMENT DESCRIPTION: DrugMatrix - Regimen: Daily Repeat
- Format: toxicity, organism-based, Sprague-Dawley
- Design: regimen Daily Repeat, gender Male, age 6-8 weeks
- REPORTED CONDITIONS: in vivo, po, 0 mg/kg, 72 h, tissue Plasma, route oral GAVAGE, dose level Control, time 3 day, vehicle 100 % WATER
Your answer is read as MEQ/L, so omit the unit and give the number.

| COMPOUND | METRIC | SCALE UNIT | REPORTED MEASUREMENT |
| --- | --- | --- | --- |
| CCN(C(C)=O)c1cccc(-c2ccnc3c(C#N)cnn23)c1 | SODIUM | MEQ/L | 145.2 |
| CN(C)CCC=C1c2ccccc2CCc2ccccc21 | SODIUM | MEQ/L | 145.2 |
| CCN(CC)CCOC(=O)C1(C2CCCCC2)CCCCC1 | SODIUM | MEQ/L | 148.5 |
| CCCC(C)C1(CC)C(=O)NC(=O)NC1=O (stereo unspecified) | SODIUM | MEQ/L | 144.12 |
| C#Cc1cccc(Nc2ncnc3cc(OCCOC)c(OCCOC)cc23)c1 | SODIUM | MEQ/L | 146.67 |
| O=c1[nH]c(=O)n(C2CCCO2)cc1F (stereo unspecified) | SODIUM | MEQ/L | 143.9 |

Write down SODIUM measured for item NC12CC3CC(CC(C3)C1)C2
145.2

Give recorded SODIUM. NC(=O)c1cccnc1 [NIACINAMIDE]
144.27

Query SODIUM for CN(C)C(=O)Oc1cccc([N+](C)(C)C)c1.[Br-] [NEOSTIGMINE BROMIDE]
144.12

Give me measured SODIUM, please, for this compound: CNC1=Nc2ccc(Cl)cc2C(c2ccccc2)=[N+]([O-])C1 [CHLORDIAZEPOXIDE]
142.62

Answer with the recorded SODIUM for the compound listed here: CCN(CC)CCNC(=O)c1ccc(N)cc1 [PROCAINAMIDE]
149.67

* * *

- Species on record: Rattus norvegicus
- EXPERIMENT DESCRIPTION: DrugMatrix - Regimen: Daily Repeat
- Type: toxicity, organism-based, Sprague-Dawley
- Design: regimen Daily Repeat, gender Male, age 6-8 weeks
- REPORTED CONDITIONS: in vivo, iv, 0 mg/kg, 72 h, tissue Plasma, dose level Control, time 3 day, vehicle 100 % SALINE
METRIC: TOTAL PROTEIN (G/DL)
Write the answer as a number in G/DL, unit excluded.

| MOLECULE | METRIC | REPORTED MEASUREMENT |
| --- | --- | --- |
| C[N+](C)(C)CCOC(=O)CCC(=O)OCC[N+](C)(C)C.[Cl-].[Cl-] [SUCCINYLCHOLINE CHLORIDE] | TOTAL PROTEIN | 5.65 |
| O=c1[nH]c(=O)n([C@H]2C[C@H](O)[C@@H](CO)O2)cc1F | TOTAL PROTEIN | 5.77 |
| COc1cccc2c1C(=O)c1c(O)c3c(c(O)c1C2=O)C[C@@](O)(C(C)=O)C[C@@H]3O[C@H]1C[C@H](N)[C@H](O)[C@H](C)O1 | TOTAL PROTEIN | 6.02 |
| N=C(N)c1ccc(OCCCCCOc2ccc(C(=N)N)cc2)cc1 | TOTAL PROTEIN | 5.65 |

Supply measured TOTAL PROTEIN of O=C(O)P(=O)(O)O in your reply.
5.57

* * *

- Organism: Rattus norvegicus
- EXPERIMENT DESCRIPTION: DrugMatrix - Regimen: Daily Repeat
- Type: toxicity, organism-based, Sprague-Dawley
- Design: regimen Daily Repeat, gender Male, age 6-8 weeks
- REPORTED CONDITIONS: in vivo, ip, 0.5 mg/kg, 120 h, tissue Blood, route intraperitoneal, dose level High, time 5 day, vehicle 100 % SALINE
METRIC: ABSOLUTE EOSINOPHIL (cells/µL)
Your answer should be a plain number; it is taken to be in cells/µL.

Kindly indicate its recorded ABSOLUTE EOSINOPHIL. Item: TRANSPLATIN
98

* * *

- Organism: Rattus norvegicus
- EXPERIMENT DESCRIPTION: DrugMatrix - Regimen: Daily Repeat
- Format: toxicity, organism-based, Sprague-Dawley
- Parameters: regimen Daily Repeat, gender Male, age 6-8 weeks
- REPORTED CONDITIONS: in vivo, ip, 0 mg/kg, […], tissue Blood, route intraperitoneal, dose level Control, time 14 day, vehicle 100 % SALINE
Parameter ABSOLUTE LYMPHOCYTE: see the listing below.
Hi! Could you send only the number? It should be in cells/µL, unit omitted.

Please give measured ABSOLUTE LYMPHOCYTE of the following entry: COBALTOUS CHLORIDE
13500

Specify reported ABSOLUTE LYMPHOCYTE for the sequence shown: TRANSPLATIN
13500
